Please provide measured Reduction (%) of parasitaemia, Day eight for the entries that follow.
Test system: P. berghei ANKA expressing green fluorescent protein (PbA-GFP)
assay-info: In vivo activity evaluation against P. berghei (four-day test in mice)
Parameters: species or system Plasmodium berghei
experimental-parameters: Swiss mice, 30 mg/Kg orally for four consecutive days, day eight after infection, vs untreated controls
// return numeric value only (unit: %, not printed)

INPUT: Let me know recorded Reduction (%) of parasitaemia, Day eight for CCN(CC)CCCC(C)Nc1ccnc2cc(Cl)ccc12 (stereo not shown) [Chloroquine, reference compound] , thanks.
OUTPUT: 100

INPUT: Read off the recorded Reduction (%) of parasitaemia, Day eight for CCOC(=O)C1=C(CCl)NC(=O)NC1c1ccccc1Cl (stereo not shown)
OUTPUT: 55.2

INPUT: Tell me Reduction (%) of parasitaemia, Day eight reported for CCOC(=O)C1=C(CCl)NC(=O)NC1c1ccc(Br)cc1 (stereo not shown)
OUTPUT: 60.9

INPUT: Answer with the recorded Reduction (%) of parasitaemia, Day eight of CCOC(=O)C1=C(CCl)NC(=O)NC1c1ccc(OC)cc1 (stereo not shown) only.
OUTPUT: 33.8

Reference source for all entries: paper PMC6001580
